In this section we review reported ED50 values for a set of compounds.
- System: Mus musculus
- Protocol Details: Analgesic activity in po dosed mouse assessed as inhibition of acetic acid-induced writhing
- Type: functional

- Compound: "O=C(O)C1CCc2c(cnn2-c2ccccc2)C1 (stereo not given)"
  ED50 [mg/kg]: 4.7
- Compound: "CCCCC1C(=O)N(c2ccccc2)N(c2ccccc2)C1=O"
  ED50 [mg/kg]: 810
- Compound: "O=C(O)C1CCc2c(cnn2-c2ccc(Cl)cc2)C1 (stereo not given)"
  ED50 [mg/kg]: 7
- Compound: "O=C(O)c1ccccc1Nc1cccc(C(F)(F)F)c1"
  ED50 [mg/kg]: 160
- Compound: "COc1ccc2c(c1)c(CC(=O)O)c(C)n2C(=O)c1ccc(Cl)cc1"
  ED50 [mg/kg]: 6.3

====

- Test system: Rattus norvegicus
- Protocol Details: Ulcerogenic activity in po dosed rat assessed as induction of lesions in gastric mucosa measured after 24 hrs
- Type: toxicity, organism-based
- Experimental Setup: in vivo
# binarize MUD: threshold 50 mg/kg inclusive, high side yes (1), low side no (0)

- Compound: "CCCCC1C(=O)N(c2ccccc2)N(c2ccccc2)C1=O"
  Tested On: "Rattus norvegicus"
  Group: "yes (1)"
- Compound: "O=C(O)C1CCc2c(cnn2-c2ccc(Cl)cc2)C1 (stereo not given)"
  Tested On: "Rattus norvegicus"
  Group: "yes (1)"
- Compound: "COc1ccc2c(c1)c(CC(=O)O)c(C)n2C(=O)c1ccc(Cl)cc1"
  Tested On: "Rattus norvegicus"
  Group: "no (0)"
- Compound: "O=C(O)C1CCc2c(cnn2-c2ccccc2)C1 (stereo not given)"
  Tested On: "Rattus norvegicus"
  Group: "no (0)"
